test system: T1, NKG2D alone on transfected 293 EBNA cells (UniProt P26718 1-216, limits assumed)
T1 construct: whole, on cells
T1 sequence (looked up): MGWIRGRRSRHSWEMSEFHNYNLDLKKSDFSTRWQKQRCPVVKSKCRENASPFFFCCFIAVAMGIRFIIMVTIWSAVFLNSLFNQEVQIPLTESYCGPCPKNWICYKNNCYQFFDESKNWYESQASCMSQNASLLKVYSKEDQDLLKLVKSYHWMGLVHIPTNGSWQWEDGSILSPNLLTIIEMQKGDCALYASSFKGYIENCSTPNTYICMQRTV
measurement notes: flow cytometry, transfected 293 EBNA cells, 2 µg Fc protein + goat anti-human IgG PE
Catalogue of binders with associated Mean Fluorescence Intensity (MFI)
parameter: Mean Fluorescence Intensity (MFI)

binder	assay value
ULBP3/Fc (Fc fusion, That entry lacks the first five residues of the leader and still holds the rest of the signal peptide and the GPI signal; not shown: Fc portion of ULBP3/Fc is not described) DAHSLWYNFTIIHLPRHGQQWCEVQSQVDQKNFLSYDCGSDKVLSMGHLEEQLYATDAWGKQLEMLREVGQRLRLELADTELEDFTPSGPLTLQVRMSCECEADGYIRGSWQFSFDGRKFLLFDSNNRKWTVVHAGARRMKEKWEKDSGLTTFFKMVSMRDCKSWLRDFLMHRKKRLEPTAPPTMAPG	9.55 MFI
MICA/Fc (Fc fusion, UniProt Q29983 24-307, looked up, not shown: Fc portion not described) EPHSLRYNLTVLSWDGSVQSGFLTEVHLDGQPFLRCDRQKCRAKPQGQWAEDVLGNKTWDRETRDLTGNGKDLRMTLAHIKDQKEGLHSLQEIRVCEIHEDNSTRSSQHFYYDGELFLSQNLETKEWTMPQSSRAQTLAMNVRNFLKEDAMKTKTHYHAMHADCLQELRRYLKSGVVLRRTVPPMVNVTRSEASEGNITVTCRASGFYPWNITLSWRQDGVSLSHDTQQWGDVLPDGNGTYQTWVATRICQGEEQRFTCYMEHSGNHSTHPVPSGKVLVLQSHW	15.4 MFI
MICB/Fc (Fc fusion, UniProt Q29980 23-309, looked up, also called MICB1/FC; not shown: Fc portion not described) AEPHSLRYNLMVLSQDGSVQSGFLAEGHLDGQPFLRYDRQKRRAKPQGQWAENVLGAKTWDTETEDLTENGQDLRRTLTHIKDQKGGLHSLQEIRVCEIHEDSSTRGSRHFYYDGELFLSQNLETQESTVPQSSRAQTLAMNVTNFWKEDAMKTKTHYRAMQADCLQKLQRYLKSGVAIRRTVPPMVNVTCSEVSEGNITVTCRASSFYPRNITLTWRQDGVSLSHNTQQWGDVLPDGNGTYQTWVATRIRQGEEQRFTCYMEHSGNHGTHPVPSGKALVLQSQRTD	9.58 MFI
UL16-Fc fusion protein (Fc fusion, extracellular domain; not shown: IgG1 Fc (mutein form), as described for OX40-Fc (Baum et al., EMBO J. 13:3992-4001, 1994); the mutein is described in p-) VDLGSKSSNSTCRLNVTELASIHPGETWTLHGMCISICYYENVTEDEIIGVAFTWQHNESVVDLWLYQNDTVIRNFSDITTNILQDGLKMRTVPVTKLYTSRMVTNLTVGRYDCLRCENGTTKIIERLYVRLGSLYPRPPGSGLAKHPSVSADEELSA	27.9 MFI
